The reported numbers originate from the Human Domainome abundance scans (Beltran et al. 2025).

B1: E3 ubiquitin-protein ligase Midline-1, residues 172 to 214; numbered along this chain, O15344 (parent)
chain: GLMCLEHEDEKVNMYCVTDDQLICALCKLVGRHRDHQVAALSE

Variants of: B1
Experiment: abundance fitness (aPCA) (normalised: wild type 0, dead -1); higher = more abundant; growth selection in yeast, the domain comes from the species named
Conditions: Homo sapiens
measured_metric: abundance fitness
Give bare numbers.

Below, each entry is followed by its recorded abundance fitness result.
> print(dat)
   change    measured.metric  endpoint.value
1    D19N  abundance fitness          -0.095
2    Q21Y  abundance fitness          -0.171
3     D9N  abundance fitness           0.636
4    Q37D  abundance fitness           0.105
5    Q21C  abundance fitness          -0.174
6    L29Y  abundance fitness          -0.085

Lab note: each variant below needs its abundance fitness filled in.
1. R34H
2. N13G
3. D9K
4. I23G

-- reply
0.25
-0.022
-0.38
-0.19

Lab note: each variant below needs its abundance fitness filled in.
1. H36A
2. L22E
3. A39D
4. V30A
5. V17H
6. E8Y
7. A40W
8. L41K

-- reply
-0.445
0.377
0.088
0.15
0.29
-0.243
-0.406
0.161
